- Test system: wheat (Triticum aestivum)
- assay-name: Test A postemergence, visual injury rating
- Assay type: in vivo
- condition-details: 31 g ai/ha, 0 to 100 scale, 0 is no effect, 100 is complete control, approximately 10 days
assay-metric: Wheat plant response rating

# annotated cases, reported Wheat plant response rating shown
{"record-smiles": "O=C(CCC(F)(F)F)c1c(Br)cccc1Oc1ncc(Cl)cn1", "system-name": "wheat (Triticum aestivum)", "Wheat plant response rating": 0}
{"record-smiles": "O=C(OCC(F)(F)C(F)(F)F)c1c(F)cccc1Oc1ncc(Br)cn1", "system-name": "wheat (Triticum aestivum)", "Wheat plant response rating": 0}
{"record-smiles": "O=C(OCCC1CC1)c1c(Br)cccc1Oc1ncc(Cl)cn1", "system-name": "wheat (Triticum aestivum)", "Wheat plant response rating": 0}

// next item, Wheat plant response rating requested
Prompt line: Fill in Wheat plant response rating for record CC(C)Oc1cccc(Oc2ncc(Cl)cn2)c1C(=O)OCCC(F)(F)F
Response line: 0

* * *

- System: ragweed (common ragweed, Ambrosia elatior)
- assay-name: Test A preemergence, visual injury rating
- Format: in vivo
- condition-details: 125 g ai/ha, 0 to 100 scale (0 no effect, 100 complete control)
Here, each record is paired with measured Plant response rating, Ragweed data.
Reply with just the number.

{"molecule": "CCOc1cccc(Oc2ncc(Cl)cn2)c1C(=O)OCCC(F)(F)F [Compound 116]", "Plant response rating, Ragweed": 0}
{"molecule": "O=Cc1c(Cl)cccc1Oc1ncc(Cl)cn1 [Compound 139]", "Plant response rating, Ragweed": 50}

Prompt line: Fill in Plant response rating, Ragweed for record FC(F)(F)CCCCc1c(Br)cccc1Oc1ncc(Cl)cn1 [Compound 138]
Response line: 0

Prompt line: Fill in Plant response rating, Ragweed for record O=C(OCC(Cl)CCl)c1c(Br)cccc1Oc1ncc(Cl)cn1 (stereo not shown) [Compound 97]
Response line: 0

Prompt line: Fill in Plant response rating, Ragweed for record FC(F)(F)CCCc1c(Cl)cccc1Oc1ncc(Cl)cn1 [Compound 122]
Response line: 0

* * *

- Tested on: ragweed (common ragweed, Ambrosia elatior)
- assay-name: Test A postemergence, visual injury rating
- Format: in vivo
- condition-details: 125 g ai/ha, 0 to 100 scale, 0 is no effect, 100 is complete control, approximately 10 days
- Description: […]
assay-metric: Ragweed plant response rating
Reply with just the number.

{"compound": "C=C(C)CCOC(=O)c1c(Br)cccc1Oc1ncc(Cl)cn1", "Ragweed plant response rating": 0}
{"compound": "O=C(CCC(F)(F)F)c1c(Cl)cccc1Oc1ncc(Cl)cn1", "Ragweed plant response rating": 30}

Prompt line: Fill in Ragweed plant response rating for record CCSC(=O)c1c(Br)cccc1Oc1ncc(Cl)cn1
Response line: 0

Prompt line: Fill in Ragweed plant response rating for record N#Cc1cccc(Oc2ncc(Cl)cn2)c1CCCC(F)(F)F
Response line: 10

Prompt line: Fill in Ragweed plant response rating for record N#Cc1cccc(Oc2ncc(Cl)cn2)c1COCCC(F)(F)F
Response line: 30

Prompt line: Fill in Ragweed plant response rating for record FC(F)(F)CCCc1c(Cl)cccc1Oc1ncc(Cl)cn1
Response line: 10

Prompt line: Fill in Ragweed plant response rating for record CCCSC(=O)c1c(Br)cccc1Oc1ncc(Cl)cn1
Response line: 20

Prompt line: Fill in Ragweed plant response rating for record FC(F)(F)CCCCc1c(Oc2ncc(Cl)cn2)cccc1C1CC1
Response line: 10

Prompt line: Fill in Ragweed plant response rating for record O=C(OCCC(F)(F)F)c1cc(Cl)ccc1Oc1ncc(Cl)cn1
Response line: 0

* * *

- Test system: oat, wild (wild oat Avena fatua)
- assay-name: Test C preemergence, plant response rating
- Assay type: in vivo
- condition-details: 62 g ai/ha, scale 0 to 100
assay-metric: Plant response rating, Oat, Wild
Reply with just the number.

# annotated cases, reported Plant response rating, Oat, Wild shown
{"compound": "O=C(CCCCC(F)(F)F)c1c(Br)cccc1Oc1ncc(Cl)cn1", "Plant response rating, Oat, Wild": 5}
{"compound": "O=C(CCCC(F)(F)F)c1c(Oc2ncc(Cl)cn2)cccc1C(F)(F)F", "Plant response rating, Oat, Wild": 10}
{"compound": "FC(F)(F)CCCc1c(Br)cccc1Oc1ncc(Cl)cn1", "Plant response rating, Oat, Wild": 30}
{"compound": "N#CC(CCCC(F)(F)F)c1ccccc1Oc1ncc(Cl)cn1 (stereo not drawn)", "Plant response rating, Oat, Wild": 10}
{"compound": "CCCC(=O)c1c(Oc2ncc(Cl)cn2)cccc1C(F)(F)F", "Plant response rating, Oat, Wild": 5}

Prompt line: Fill in Plant response rating, Oat, Wild for record FC(F)(F)CCCCc1c(Br)cccc1Oc1ncc(Cl)cn1
Response line: 5

* * *

- System: oilseed rape (Brassica napus)
- assay-name: Test C postemergence, plant response rating
- Assay type: in vivo
- condition-details: 125 g ai/ha, scale 0 to 100 (0 no effect, 100 complete control)
assay-metric: Oilseed Rape plant response rating

Prompt line: // output Oilseed Rape plant response rating; input N#CC(CCCC(F)(F)F)c1ccccc1Oc1ncc(Cl)cn1 (centres unmarked) ; system oilseed rape (Brassica napus)
Response line: 85

Prompt line: // output Oilseed Rape plant response rating; input O=C(CCCC(F)(F)F)c1c(Cl)cccc1Oc1ncc(Cl)cn1 ; system oilseed rape (Brassica napus)
Response line: 100

Prompt line: // output Oilseed Rape plant response rating; input FC(F)(F)CCCc1c(Br)cccc1Oc1ncc(Cl)cn1 ; system oilseed rape (Brassica napus)
Response line: 100

Prompt line: // output Oilseed Rape plant response rating; input O=C(OCCC(F)(F)F)c1c(Br)cccc1Oc1ncc(Br)cn1 ; system oilseed rape (Brassica napus)
Response line: 95

Prompt line: // output Oilseed Rape plant response rating; input O=C(CCCC(F)(F)F)c1c(Br)cccc1Oc1ncc(Cl)cn1 ; system oilseed rape (Brassica napus)
Response line: 85

* * *

- System: blackgrass (Alopecurus myosuroides)
- assay-name: Test A postemergence, visual injury rating
- Assay type: in vivo
- condition-details: 31 g ai/ha, 0 to 100 scale, 0 is no effect, 100 is complete control, approximately 10 days
assay-metric: Blackgrass plant response rating
Reply with just the number.

# annotated cases, reported Blackgrass plant response rating shown
{"record-smiles": "O=C(CCC(F)(F)C(F)(F)F)c1c(Br)cccc1Oc1ncc(Cl)cn1", "result-value": 0}
{"record-smiles": "C=C(C)CCOC(=O)c1c(Br)cccc1Oc1ncc(Cl)cn1", "result-value": 0}
{"record-smiles": "O=C(OCCC(F)(F)F)c1c(OCC(F)(F)F)cccc1Oc1ncc(Cl)cn1", "result-value": 0}
{"record-smiles": "O=C(CCC(F)(F)F)c1c(Br)cccc1Oc1ncc(Cl)cn1", "result-value": 10}

Prompt line: Fill in Blackgrass plant response rating for record CCCC(=O)c1c(C#N)cccc1Oc1ncc(Cl)cn1
Response line: 0

* * *

Here, each record is paired with measured Plant response rating, Surinam Grass data.
- Tested on: surinam grass (Brachiaria decumbens)
- assay-name: Test C preemergence, plant response rating
- Format: in vivo
- condition-details: 125 g ai/ha, scale of 0 to 100
Reply with just the number.

# annotated cases, reported Plant response rating, Surinam Grass shown
{"record-smiles": "O=C(CCC(F)(F)F)c1c(Cl)cccc1Oc1ncc(Cl)cn1", "Plant response rating, Surinam Grass": 98}
{"record-smiles": "CCCCC(=O)c1c(Br)cccc1Oc1ncc(Cl)cn1", "Plant response rating, Surinam Grass": 85}
{"record-smiles": "N#Cc1cccc(Oc2ncc(Cl)cn2)c1COCCC(F)(F)F", "Plant response rating, Surinam Grass": 98}

// next item, Plant response rating, Surinam Grass requested
Prompt line: Fill in Plant response rating, Surinam Grass for record C=C(Br)COC(=O)c1c(Br)cccc1Oc1ncc(Cl)cn1
Response line: 25

* * *

- System: galium (catchweed bedstraw, Galium aparine)
- assay-name: Test C preemergence, plant response rating
- Format: in vivo
- condition-details: 125 g ai/ha, scale of 0 to 100
assay-metric: Plant response rating, Galium

{"compound": "N#Cc1cccc(Oc2ncc(Cl)cn2)c1C(=O)OCCC(F)(F)F", "system-name": "galium (catchweed bedstraw, Galium aparine)", "Plant response rating, Galium": 85}
{"compound": "N#Cc1cccc(Oc2ncc(Cl)cn2)c1CCCC(F)(F)F", "system-name": "galium (catchweed bedstraw, Galium aparine)", "Plant response rating, Galium": 100}
{"compound": "N#Cc1cccc(Oc2ncc(Cl)cn2)c1COCCC(F)(F)F", "system-name": "galium (catchweed bedstraw, Galium aparine)", "Plant response rating, Galium": 98}
{"compound": "C=C(Br)COC(=O)c1c(Br)cccc1Oc1ncc(Cl)cn1", "system-name": "galium (catchweed bedstraw, Galium aparine)", "Plant response rating, Galium": 15}

// next item, Plant response rating, Galium requested
Prompt line: Fill in Plant response rating, Galium for record N#CC(CCCC(F)(F)F)c1ccccc1Oc1ncc(Cl)cn1 (centres unmarked)
Response line: 55

* * *

- Test system: kochia (Kochia scoparia)
- assay-name: Test C preemergence, plant response rating
- Type: in vivo
- condition-details: 31 g ai/ha, scale 0 to 100
Give fulfilled when the value for Plant response rating, Kochia is at least 80. Give not fulfilled when it is less.

{"record-smiles": "FC(F)(F)CCCc1c(Br)cccc1Oc1ncc(Cl)cn1", "category": "not fulfilled"}
{"record-smiles": "FC(F)(F)CCCCc1c(Br)cccc1Oc1ncc(Cl)cn1", "category": "not fulfilled"}
{"record-smiles": "CCCCC(=O)c1c(Oc2ncc(Cl)cn2)cccc1C(F)(F)F", "category": "not fulfilled"}

Prompt line: Quick check: does N#Cc1cccc(Oc2ncc(Cl)cn2)c1COCCC(F)(F)F have Plant response rating, Kochia greater than or equal to 80?
Response line: fulfilled
